Overview of recorded protein stability index for various variants
B1: TRIM35 (parent)
chain: DKELLCCSCQADPRHQGHRVQPVK

variants of: B1; assay: protein stability index of a GFP-peptide fusion (GPS, HEK-293T) (PSI 1-6); higher = more stable; details: c terminus: a fixed tail appended;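 note: lentivirally expressed fusions sorted by FACS into six bins by GFP to DsRed ratio, PSI derived from sequencing read proportions per bin multiplied by bin number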
reported-metric: protein stability index

In [3]: df
Out[3]:
                     residue_string          reported_metric  assay_value
 0  DKELLCCSCQADPRHQGHRQQPVK [V20Q]  protein stability index         4.11
 1  DKELLCCSCQHDPRHQGHRVQPVK [A11H]  protein stability index         3.29
 2  DKELLCCSCQADPREQGHRVQPVK [H15E]  protein stability index         3.56
 3  DKELLCCSCQADPRHQIHRVQPVK [G17I]  protein stability index         3.48
 4   DKELLHCSCQADPRHQGHRVQPVK [C6H]  protein stability index         4.45
 5  DKELLCCSCQADPRHQGHRVQFVK [P22F]  protein stability index         3.44
 6  DKELLCCSCQADPRAQGHRVQPVK [H15A]  protein stability index         3.48
 7  DKELLCCSCQADPRHQYHRVQPVK [G17Y]  protein stability index         3.37
 8  DKELLCCSCQADPRHQRHRVQPVK [G17R]  protein stability index         3.84
 9  DKELLCCSCQADPDHQGHRVQPVK [R14D]  protein stability index         4.05
10  DKELLCCSCQADPRHQGHRVQVVK [P22V]  protein stability index         2.68
